In this section, each of the molecules is paired with its reported Percent Effect.
ASSAYED TARGET: Proteasome subunit beta (Trypanosoma cruzi)
EXPERIMENT DESCRIPTION: Trypanosoma cruzi proteasome chymotrypsin-like activity (TcProtChymo) assay. Also: in the data most compounds retested in dose-response had high values.
Type: functional
Parameters: scale not given: direction of the effect not stated beside the values
CONDITIONS: 9.37 µM

MOLECULE | RECORDED MEASUREMENT
CCn1nc(CC(C)C)cc1C(=O)NCCn1cccc1 | 11.6%

Enquiry: Supply measured Percent Effect of CN(Cc1ccco1)C(=O)CN1CCCC(Cn2cncn2)C1 (stereo not drawn) in your reply.
Return: 15%

Enquiry: Provide one value: measured Percent Effect of Cc1noc([C@@H]2CC[C@@H]3[C@@H](CCN3S(=O)(=O)c3cccnc3)O2)n1
Return: 9.89%

Enquiry: # return recorded Percent Effect for input O=C(c1ccnnc1)N1C[C@@H](OCC2CCCC2)[C@H]2OCCC[C@H]21
Return: 11.8%

Enquiry: State its Percent Effect: Cn1ncc2c(NCCC34CCCN3CCC4)nc(C3CCCC3)nc21
Return: 5.68%

Enquiry: Identify the reported Percent Effect for the following entry. Cn1cc(Cl)cc1C(=O)N1CCN(Cc2ccsc2)CC1
Return: -1.67%

Enquiry: Please give measured Percent Effect of the following entry: Cc1ccc(CN2CC(C(=O)N3CCCC3)C3(CCOCC3)C2)s1 (stereo not drawn)
Return: 2.05%

Enquiry: For the molecule CN(Cc1nnc(C2CC2)n1C)C(=O)c1ccnc(OC2CCC2)c1 , give its reported Percent Effect.
Return: 6.21%

Enquiry: Note Percent Effect for the molecule shown: Cc1nn(C)c(N(C)C)c1CNCC(O)COc1ccc(F)cc1 (stereo not drawn)
Return: 12.2%

Enquiry: State, in one line, measured Percent Effect of CC(=O)Nc1ncc(S(=O)(=O)Nc2ccc(F)cc2)s1
Return: 12.2%

Enquiry: Give Percent Effect for O=C(C1=CCCC1)N1CCC[C@]2(C[C@@H](Oc3ncccc3F)CO2)C1
Return: 23.2%

Enquiry: Quickly give me recorded Percent Effect for O=C(COCc1nc(-c2ccncc2)no1)NC1CCCCC1
Return: 7.65%

Enquiry: Report Percent Effect, nothing else, for this molecule: Cc1nc(CNCc2c(C)nn(C)c2N2CCOCC2)cs1
Return: 5.68%

###

Tested on: Trypanosoma cruzi
EXPERIMENT DESCRIPTION: Trypanosoma cruzi phosphomannomutase and mannose-1-phosphate guanylyltransferase assay
Type: functional
Set-up: scale not given: direction of the effect not stated beside the values
CONDITIONS: 10 µM
VALUE TYPE: Percent Effect (%)
Write it as a number; the unit % goes unstated.

For orientation, consider the following solved cases.
MOL | ASSAYED TARGET | Percent Effect [%]
COc1cc(CNc2cnn(C)c2)cc2c1OCCO2 | Trypanosoma cruzi | 1.5
Cc1ccoc1-c1nnc(CNCCn2cccn2)o1 | Trypanosoma cruzi | 3.12
Cc1cc(CN2CCc3nn(C(C)C)c(=O)cc3C2)no1 | Trypanosoma cruzi | -0.781

Enquiry: GET Percent Effect | system: Trypanosoma cruzi | item: Cn1nc2c(cc1=O)CN(CCc1nc3ccccc3c(=O)[nH]1)CC2
Return: 8.23

###

ASSAYED TARGET: Tyrosyl-tRNA synthetase, putative (Trypanosoma cruzi (strain CL Brener))
EXPERIMENT DESCRIPTION: Trypanosoma cruzi tyrosyl tRNA synthetase (TcYRS) SOP
Type: functional
Parameters: scale not given: direction of the effect not stated beside the values
CONDITIONS: 30 µM
# maps each entry to its Percent Effect
Please respond with the number in % and leave the unit unwritten.

Enquiry: Identify measured Percent Effect obtained with Tyrosyl-tRNA synthetase, putative (Trypanosoma cruzi (strain CL Brener)) for CCC1CN(Cc2ccccc2)CCN1Cc1nnc(C2CCC2)o1 (stereo unspecified) .
Return: 5

Enquiry: Supply Percent Effect measured with Tyrosyl-tRNA synthetase, putative (Trypanosoma cruzi (strain CL Brener)) for CN(C)C(=O)N1C[C@@H]2CC[C@H](C1)N(Cc1ccc3nsnc3c1)C2 .
Return: 2.56

Enquiry: Report Percent Effect from Tyrosyl-tRNA synthetase, putative (Trypanosoma cruzi (strain CL Brener)) testing of CC(C)n1ccnc1C1CCCN(c2ccccn2)C1 (stereo unspecified)
Return: 11.1

Enquiry: Param request: Percent Effect | system Tyrosyl-tRNA synthetase, putative (Trypanosoma cruzi (strain CL Brener)) | item O=C(c1ccn[nH]1)N1CCCC(n2cncn2)C1 (stereo unspecified)
Return: 15.2

Enquiry: Specify the recorded Percent Effect for CCNC(=O)N(C)Cc1ccc(SC)c(OC)c1 , system: Tyrosyl-tRNA synthetase, putative (Trypanosoma cruzi (strain CL Brener)).
Return: 3.66

Enquiry: Write down the reported Percent Effect (system: Tyrosyl-tRNA synthetase, putative (Trypanosoma cruzi (strain CL Brener))) of O=C(C1SCCc2sccc21)N1CCN(CCO)CC1 (stereo unspecified)
Return: 15.8

Enquiry: With Tyrosyl-tRNA synthetase, putative (Trypanosoma cruzi (strain CL Brener)) as the test system, provide measured Percent Effect for this compound: CC(=O)c1cccc(S(=O)(=O)N2CSCC2C(=O)NCC(F)(F)F)c1 (stereo unspecified)
Return: 22.8

Enquiry: Fill in: Percent Effect on Tyrosyl-tRNA synthetase, putative (Trypanosoma cruzi (strain CL Brener)), entry CS(=O)(=O)CCC(=O)Nc1cnn(-c2ccccc2Cl)c1
Return: 18.3

Enquiry: For Tyrosyl-tRNA synthetase, putative (Trypanosoma cruzi (strain CL Brener)), give Percent Effect of the listed compound: Cn1ncc2c(=O)[nH]c(CN(Cc3ccco3)C3CCCC3)nc21
Return: 24.4

Enquiry: Param request: Percent Effect | system Tyrosyl-tRNA synthetase, putative (Trypanosoma cruzi (strain CL Brener)) | item COc1c(C2CCCN2C(=O)c2ccc3cc[nH]c3c2)c(C)nn1C (stereo unspecified)
Return: 14.1

Enquiry: Please look at Cc1oc(C(=O)O)cc1S(=O)(=O)Nc1ccc(Cl)c(F)c1 and tell me its recorded Percent Effect on Tyrosyl-tRNA synthetase, putative (Trypanosoma cruzi (strain CL Brener)).
Return: -4.88

Enquiry: Lab note: Tyrosyl-tRNA synthetase, putative (Trypanosoma cruzi (strain CL Brener)) assay, enter Percent Effect for CC1=Nc2c(c(=O)[nH]n2C2CCOCC2)C(c2cccc(Br)c2)S1 (stereo unspecified) here
Return: 20.5

Enquiry: Determine reported Percent Effect for Cc1ncsc1C(=O)NC1CCN(CC(=O)NCc2ccccc2)CC1 ; test system: Tyrosyl-tRNA synthetase, putative (Trypanosoma cruzi (strain CL Brener)).
Return: 16.1

Enquiry: Provide the reported Percent Effect (system: Tyrosyl-tRNA synthetase, putative (Trypanosoma cruzi (strain CL Brener))) for CCc1noc(CN2CCN(C(=O)N(C)C)CC2)n1
Return: -16.5

Enquiry: Report Percent Effect on Tyrosyl-tRNA synthetase, putative (Trypanosoma cruzi (strain CL Brener)) for this entry: Cc1noc(Cl)c1CCC(=O)N1CCCCC1Cn1cccn1 (stereo unspecified)
Return: 5.2

Enquiry: Find Percent Effect for O=C(c1cnoc1)N1CCC[C@]2(C[C@@H](OCc3ccccn3)CO2)C1 on Tyrosyl-tRNA synthetase, putative (Trypanosoma cruzi (strain CL Brener)) and write it down.
Return: 8.64

Enquiry: System Tyrosyl-tRNA synthetase, putative (Trypanosoma cruzi (strain CL Brener)). Read-out Percent Effect. Item O=S1(=O)C[C@@H]2[C@H](C1)N(Cc1ncc[nH]1)CCN2CC1CC1 . Report value.
Return: 14.6

Enquiry: Tell me Percent Effect of CCc1nccn1C1CCCN(C(=O)c2ccc(C(=O)NC)nc2)C1 (stereo unspecified) when tested on Tyrosyl-tRNA synthetase, putative (Trypanosoma cruzi (strain CL Brener)).
Return: 0

Enquiry: Report the value of Percent Effect obtained on Tyrosyl-tRNA synthetase, putative (Trypanosoma cruzi (strain CL Brener)) for Cc1cc(C)n(C2CN(CC(O)c3ccc(F)cc3)C2)n1 (stereo unspecified) .
Return: 12.2

Enquiry: # return Percent Effect for Cc1ccc(C(=O)N(C)Cc2cscn2)c(=O)[nH]1 , test system: Tyrosyl-tRNA synthetase, putative (Trypanosoma cruzi (strain CL Brener))
Return: 2.6

###

ASSAYED TARGET: Protein translocase subunit SecA (Escherichia coli (strain K12)) (UniProt P10408)
Sequence (P10408 whole entry): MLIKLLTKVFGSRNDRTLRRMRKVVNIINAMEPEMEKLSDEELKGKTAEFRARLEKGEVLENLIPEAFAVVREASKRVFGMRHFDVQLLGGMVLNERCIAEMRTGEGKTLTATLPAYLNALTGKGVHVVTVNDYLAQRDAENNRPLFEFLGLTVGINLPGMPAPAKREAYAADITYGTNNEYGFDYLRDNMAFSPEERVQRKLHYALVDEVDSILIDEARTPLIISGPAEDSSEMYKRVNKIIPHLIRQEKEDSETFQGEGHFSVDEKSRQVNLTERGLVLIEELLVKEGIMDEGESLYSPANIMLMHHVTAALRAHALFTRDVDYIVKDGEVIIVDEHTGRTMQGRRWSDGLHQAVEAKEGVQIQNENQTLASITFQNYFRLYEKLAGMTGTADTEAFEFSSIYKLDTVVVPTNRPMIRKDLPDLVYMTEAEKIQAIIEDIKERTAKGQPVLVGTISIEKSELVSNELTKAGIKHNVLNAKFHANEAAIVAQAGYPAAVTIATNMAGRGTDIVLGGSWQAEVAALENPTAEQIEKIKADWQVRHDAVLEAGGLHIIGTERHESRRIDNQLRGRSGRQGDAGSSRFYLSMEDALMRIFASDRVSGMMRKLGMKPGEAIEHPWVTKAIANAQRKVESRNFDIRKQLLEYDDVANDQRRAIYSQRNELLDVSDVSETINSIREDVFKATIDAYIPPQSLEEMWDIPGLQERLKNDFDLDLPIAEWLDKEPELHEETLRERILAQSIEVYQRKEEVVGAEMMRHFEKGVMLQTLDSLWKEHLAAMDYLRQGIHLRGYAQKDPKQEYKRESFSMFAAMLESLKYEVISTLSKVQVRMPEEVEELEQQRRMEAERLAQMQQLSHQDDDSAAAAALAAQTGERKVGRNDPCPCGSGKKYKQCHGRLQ
EXPERIMENT DESCRIPTION: Assay to Identify E. coli SecA ATPase Inhibitors
Format: functional
Parameters: scale not given: direction of the effect not stated beside the values
CONDITIONS: 30 µM
Potency and affinity values are given separately.
VALUE TYPE: Percent Effect (%)
// note: answer is a bare numeric in %

COMPOUND | Percent Effect / %
N#Cc1ccc(N2CCCN(C(=O)CC3CCCO3)CC2)cc1 (stereo not given) | -4.45
c1cnc(NCc2noc3c2CN(C2CCOCC2)CC3)nc1 | -4.67
O=C(c1cnccn1)N1CCN2C[C@H](OCc3ccccn3)C[C@H]2C1 | -0.668
CC(C)CNC(=O)CN1C=Nc2ccccc2S1(=O)=O | -6.73

Query compound follows.
Enquiry: # return recorded Percent Effect for input Cc1noc(C)c1CCC(=O)N1CCN(CCn2cccn2)CC1
Return: -5.39

###

ASSAYED TARGET: Chromo domain-containing protein 1 (Saccharomyces cerevisiae (strain ATCC 204508 / S288c) (Baker's yeast))
EXPERIMENT DESCRIPTION: ScCHD-1 Enzyme Inhibition Assay; also: in the data most compounds retested in dose-response had high values
Assay type: functional
Design: scale not given: direction of the effect not stated beside the values
CONDITIONS: 30 µM
Each record here notes measured Percent Effect.
Please make sure the unit comes right after the number.

Recorded results for 10 molecules are shown here.
MOLECULE | Percent Effect
Cc1ccccc1C(=O)N1CCOC2(CNCCOC2)C1 (centres undefined) | -3.15%
CSCCC(CO)NC(=O)c1sc(-c2ccccc2Cl)nc1C (centres undefined) | -4%
COc1cccc(CN(C)C(=O)CCC(=O)c2ccc(Cl)cc2)c1OC | -4.85%
Cc1cc2c(=O)n3c(nc2s1)CCN(C(=O)c1cnn(C)c1C)CC3 | -18.8%
Cc1ccc(C(=O)N(C)Cc2cscn2)c(=O)[nH]1 | -6.33%
Cc1nc(CN2CCCn3c(nc(Cn4ccnc4)cc3=O)C2)cs1 | -4.76%
CC(C)c1nnc2n1CCN(Cc1csc(CC(=O)N(C)C)n1)C2 | -15%
CCNC(c1cccnc1)c1cc(C)cc(C)c1 (centres undefined) | 2.53%
c1ncn(Cc2cnc3n2CCN(Cc2ccsc2)CC3)n1 | 2.03%
CC(=O)N1CCCN(C(=O)NCCc2cc(Cl)cc(Cl)c2)CC1 | -17.6%

// next item, Percent Effect requested
Enquiry: Let me know recorded Percent Effect for O=C(NCCNc1ccc(C(F)(F)F)cn1)c1cncc(Br)c1 , thanks.
Return: -20.7%
